- Test system: human melanoma MDA-MB-435s
- assay procedure: Colony growth of MDA-MB-435s TRCs in 90-Pa fibrin gels
- Assay type: cell-based
- run conditions: 0 h, treated on day 0
observation type: pIC50
Units for pIC50: none; it is -log10 of a concentration expressed in mol/L.

State its pIC50 for this compound: CCOC(=O)c1cnc(C#Cc2ccc3c(c2)C(C)(C)CC[S+]3[O-])nc1 (stereo not shown)
6.28

* * *

- system under test: hERG channels (Homo sapiens, UniProt Q12809)
- Sequence (Q12809 whole entry): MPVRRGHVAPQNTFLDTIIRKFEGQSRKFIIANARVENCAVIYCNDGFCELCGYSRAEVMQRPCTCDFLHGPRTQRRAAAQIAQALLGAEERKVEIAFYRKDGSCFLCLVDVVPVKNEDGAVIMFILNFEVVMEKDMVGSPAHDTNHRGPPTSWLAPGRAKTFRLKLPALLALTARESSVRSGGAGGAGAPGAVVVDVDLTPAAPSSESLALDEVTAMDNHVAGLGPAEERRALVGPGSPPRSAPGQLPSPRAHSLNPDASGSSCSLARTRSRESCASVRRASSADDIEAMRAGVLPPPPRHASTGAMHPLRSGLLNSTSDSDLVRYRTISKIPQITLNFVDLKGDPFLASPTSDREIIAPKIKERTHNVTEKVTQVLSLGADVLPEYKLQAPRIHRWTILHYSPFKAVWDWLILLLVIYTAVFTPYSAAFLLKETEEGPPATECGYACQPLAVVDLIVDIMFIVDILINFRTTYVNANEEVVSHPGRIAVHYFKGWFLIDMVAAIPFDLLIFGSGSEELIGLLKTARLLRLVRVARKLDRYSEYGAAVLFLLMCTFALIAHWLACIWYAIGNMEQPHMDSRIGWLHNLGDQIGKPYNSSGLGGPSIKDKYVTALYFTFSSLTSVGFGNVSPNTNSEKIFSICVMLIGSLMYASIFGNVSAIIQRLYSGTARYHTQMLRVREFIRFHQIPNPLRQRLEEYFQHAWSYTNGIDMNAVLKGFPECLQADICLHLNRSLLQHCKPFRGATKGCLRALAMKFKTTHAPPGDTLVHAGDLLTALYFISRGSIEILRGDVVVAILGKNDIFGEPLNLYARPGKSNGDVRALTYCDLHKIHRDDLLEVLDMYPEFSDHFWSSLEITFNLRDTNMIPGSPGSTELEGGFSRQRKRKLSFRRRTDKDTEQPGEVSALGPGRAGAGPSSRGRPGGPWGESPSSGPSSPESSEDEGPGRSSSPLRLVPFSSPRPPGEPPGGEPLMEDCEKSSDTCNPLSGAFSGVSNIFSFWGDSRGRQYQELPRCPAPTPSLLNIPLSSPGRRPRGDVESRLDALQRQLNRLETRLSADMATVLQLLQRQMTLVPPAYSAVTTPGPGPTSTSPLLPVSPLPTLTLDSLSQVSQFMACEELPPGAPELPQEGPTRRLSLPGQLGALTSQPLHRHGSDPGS
- assay procedure: Functional hERG blocking assay, patch clamp in CHO hERG cell line
observation type: IC50

State its IC50 for this compound: CCOC(=O)c1cnc(C#Cc2ccc3c(c2)C(C)(C)CC[S@+]3[O-])nc1 [WYC-209A]
> 30 µM

State its IC50 for this compound: CCOC(=O)c1cnc(C#Cc2ccc3c(c2)C(C)(C)CC[S@@+]3[O-])nc1 [WYC-209B]
> 30 µM

* * *

- system under test: CYP 3A4 (Homo sapiens, UniProt P08684)
- Construct: from tissue; host or cells: human liver microsomes
- Sequence (P08684 whole entry): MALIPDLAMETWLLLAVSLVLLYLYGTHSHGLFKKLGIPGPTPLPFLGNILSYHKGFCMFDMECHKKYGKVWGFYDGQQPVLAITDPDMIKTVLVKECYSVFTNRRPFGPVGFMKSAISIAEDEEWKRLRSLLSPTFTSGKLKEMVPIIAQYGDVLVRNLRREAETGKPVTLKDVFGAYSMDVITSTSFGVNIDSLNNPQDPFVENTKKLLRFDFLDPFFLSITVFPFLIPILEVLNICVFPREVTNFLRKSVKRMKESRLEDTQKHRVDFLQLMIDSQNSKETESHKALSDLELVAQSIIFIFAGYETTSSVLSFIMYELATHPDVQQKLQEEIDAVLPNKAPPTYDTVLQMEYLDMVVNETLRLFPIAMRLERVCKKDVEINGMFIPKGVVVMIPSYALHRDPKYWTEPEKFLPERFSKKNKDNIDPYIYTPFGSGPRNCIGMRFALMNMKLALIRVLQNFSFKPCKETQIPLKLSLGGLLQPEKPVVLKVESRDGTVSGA
- assay procedure: Cytochromes enzyme inhibition assay, human liver microsomes
- Assay type: in vitro ADME
- run conditions: second 3A4 column
Please go through the items and note down their IC50.

State its IC50 for this compound: CCOC(=O)c1cnc(C#Cc2ccc3c(c2)C(C)(C)CC[S@+]3[O-])nc1 [WYC-209A]
> 10 µM

State its IC50 for this compound: CCOC(=O)c1cnc(C#Cc2ccc3c(c2)C(C)(C)CC[S@@+]3[O-])nc1 [WYC-209B]
> 10 µM

* * *

Please go through the items and note down their pIC50.
- system under test: CYP 2D6 (Homo sapiens)
- Construct: from tissue; host or cells: human liver microsomes
- Sequence (P10635 whole entry): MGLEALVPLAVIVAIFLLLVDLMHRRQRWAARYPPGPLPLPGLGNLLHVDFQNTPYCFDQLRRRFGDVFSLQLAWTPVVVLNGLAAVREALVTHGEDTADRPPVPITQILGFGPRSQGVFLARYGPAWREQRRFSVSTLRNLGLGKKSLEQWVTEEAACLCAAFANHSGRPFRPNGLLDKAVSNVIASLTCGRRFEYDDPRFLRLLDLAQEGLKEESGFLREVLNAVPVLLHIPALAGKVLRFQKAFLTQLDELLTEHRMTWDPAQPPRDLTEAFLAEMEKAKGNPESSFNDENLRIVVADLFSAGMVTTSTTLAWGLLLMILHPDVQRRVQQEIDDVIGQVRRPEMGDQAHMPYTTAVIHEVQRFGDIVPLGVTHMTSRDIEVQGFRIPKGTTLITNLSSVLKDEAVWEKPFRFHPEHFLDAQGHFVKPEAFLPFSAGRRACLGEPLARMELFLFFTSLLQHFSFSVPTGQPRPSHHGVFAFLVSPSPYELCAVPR
- assay procedure: Cytochromes enzyme inhibition assay, human liver microsomes
- Assay type: in vitro ADME
- run conditions: substrate bufuralol (10 µM)
pIC50: −log10 of the molar value.

State its pIC50 for this compound: CCOC(=O)c1cnc(C#Cc2ccc3c(c2)C(C)(C)CC[S@@+]3[O-])nc1 [WYC-209B]
< 5.00

State its pIC50 for this compound: CCOC(=O)c1cnc(C#Cc2ccc3c(c2)C(C)(C)CC[S@+]3[O-])nc1 [WYC-209A]
< 5.00

* * *

Please go through the items and note down their solubility at 1 h.
- assay procedure: Water solubility
- run conditions: PBS (pH 7.4), pH 7.4, aqueous buffer, kinetic from dmso stock
I only need the number, in µM, no unit after it.

State its solubility at 1 h for this molecule: CC(=O)N1CCN(c2ccc(OCC3COC(Cn4ccnc4)(c4ccc(Cl)cc4Cl)O3)cc2)CC1 (stereo not drawn) [Ketoconazole, reference compound]
49.3

State its solubility at 1 h for this molecule: CCOC(=O)c1cnc(C#Cc2ccc3c(c2)C(C)(C)CC[S@@+]3[O-])nc1 [WYC-209B]
88.1

State its solubility at 1 h for this molecule: CCOC(=O)c1cnc(C#Cc2ccc3c(c2)C(C)(C)CC[S@+]3[O-])nc1 [WYC-209A]
89.4

* * *

- Test system: TRCs of A2780, A549, MCF-7, MDA-MB-435s, A375
- assay procedure: Colony growth of TRCs of five human cancer cell lines (summary statements)
- Format: cell-based
- run conditions: Homo sapiens, 0 h; treated on day 0; read-out: IC50 (range over five human TRC types)
pIC50: −log10 of the molar value.
observation type: pIC50

State its pIC50 for this compound: CCOC(=O)c1cnc(C#Cc2ccc3c(c2)C(C)(C)CC[S+]3[O-])nc1 (stereo not shown)
6.28 to 7.00

* * *

- assay procedure: Water solubility
- run conditions: pH 7.4, aqueous buffer, kinetic from dmso stock
observation type: solubility at 1 h

State its solubility at 1 h for this molecule: CC(C)NCC(O)COc1cccc2ccccc12 (stereo not shown) [Propranolol, reference compound]
> 100 µM

* * *

observation type: IC50

GET IC50 where system = CYP 2C9 (Homo sapiens, UniProt P11712) and item = CCOC(=O)c1cnc(C#Cc2ccc3c(c2)C(C)(C)CC[S@+]3[O-])nc1 [WYC-209A]
Sequence (P11712 whole entry): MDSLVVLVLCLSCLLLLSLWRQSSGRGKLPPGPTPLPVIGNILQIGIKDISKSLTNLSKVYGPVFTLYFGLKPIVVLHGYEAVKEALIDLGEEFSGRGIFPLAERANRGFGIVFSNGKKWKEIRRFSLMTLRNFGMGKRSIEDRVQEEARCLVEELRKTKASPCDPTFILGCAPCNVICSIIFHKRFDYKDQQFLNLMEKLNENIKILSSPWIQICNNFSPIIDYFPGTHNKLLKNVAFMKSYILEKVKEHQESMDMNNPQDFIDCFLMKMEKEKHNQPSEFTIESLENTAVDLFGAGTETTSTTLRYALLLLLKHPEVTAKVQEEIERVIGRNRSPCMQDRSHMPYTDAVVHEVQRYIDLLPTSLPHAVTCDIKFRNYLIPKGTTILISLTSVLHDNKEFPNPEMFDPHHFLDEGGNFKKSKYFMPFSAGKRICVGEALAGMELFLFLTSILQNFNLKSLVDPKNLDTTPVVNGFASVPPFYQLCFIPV
> 10 µM

GET IC50 where system = CYP 2C9 (Homo sapiens, UniProt P11712) and item = CCOC(=O)c1cnc(C#Cc2ccc3c(c2)C(C)(C)CC[S@@+]3[O-])nc1 [WYC-209B]
> 10 µM

* * *

- system under test: CYP 3A4 (Homo sapiens)
- Construct: from tissue; host or cells: human liver microsomes
- assay procedure: Cytochromes enzyme inhibition assay, human liver microsomes
- Format: in vitro ADME
- run conditions: first 3A4 column
pIC50: −log10 of the molar value.
Please go through the items and note down their pIC50.

State its pIC50 for this compound: CCOC(=O)c1cnc(C#Cc2ccc3c(c2)C(C)(C)CC[S@@+]3[O-])nc1 [WYC-209B]
< 5.00

State its pIC50 for this compound: CCOC(=O)c1cnc(C#Cc2ccc3c(c2)C(C)(C)CC[S@+]3[O-])nc1 [WYC-209A]
< 5.00

* * *

- System: B16-F1 TRCs
- assay procedure: Colony growth of B16-F1 TRCs in 90-Pa 3D soft fibrin gels
- Type: cell-based, murine
- run conditions: Mus musculus, B16-F1, 10 μM, treated on day 0, day 5
observation type: inhibition at 10 µM

State its inhibition at 10 µM for this molecule: CC1=C(/C=C/C(C)=C/C=C/C(C)=C/C(=O)O)C(C)(C)CCC1 [ATRA, all-trans retinoic acid, reference compound]
80%

State its inhibition at 10 µM for this molecule: CCOC(=O)c1cnc(C#Cc2ccc3c(c2)C(C)(C)CC[S@@+]3[O-])nc1 [WYC-209B]
100%

State its inhibition at 10 µM for this molecule: CCOC(=O)c1cnc(C#Cc2ccc3c(c2)C(C)(C)CC[S+]3[O-])nc1 (centres unmarked) [WYC-209]
100%

State its inhibition at 10 µM for this molecule: CCOC(=O)c1cnc(C#Cc2ccc3c(c2)C(C)(C)CC[S@+]3[O-])nc1 [WYC-209A]
100%

State its inhibition at 10 µM for this molecule: CCOC(=O)c1ccc(C#Cc2ccc3c(c2)C(C)(C)CCS3)nc1 [Tazarotene, reference compound]
71.2%
